- target_or_test_system: (UniProt G7TKC9)
- Sequence (G7TKC9 1-656 limits assumed): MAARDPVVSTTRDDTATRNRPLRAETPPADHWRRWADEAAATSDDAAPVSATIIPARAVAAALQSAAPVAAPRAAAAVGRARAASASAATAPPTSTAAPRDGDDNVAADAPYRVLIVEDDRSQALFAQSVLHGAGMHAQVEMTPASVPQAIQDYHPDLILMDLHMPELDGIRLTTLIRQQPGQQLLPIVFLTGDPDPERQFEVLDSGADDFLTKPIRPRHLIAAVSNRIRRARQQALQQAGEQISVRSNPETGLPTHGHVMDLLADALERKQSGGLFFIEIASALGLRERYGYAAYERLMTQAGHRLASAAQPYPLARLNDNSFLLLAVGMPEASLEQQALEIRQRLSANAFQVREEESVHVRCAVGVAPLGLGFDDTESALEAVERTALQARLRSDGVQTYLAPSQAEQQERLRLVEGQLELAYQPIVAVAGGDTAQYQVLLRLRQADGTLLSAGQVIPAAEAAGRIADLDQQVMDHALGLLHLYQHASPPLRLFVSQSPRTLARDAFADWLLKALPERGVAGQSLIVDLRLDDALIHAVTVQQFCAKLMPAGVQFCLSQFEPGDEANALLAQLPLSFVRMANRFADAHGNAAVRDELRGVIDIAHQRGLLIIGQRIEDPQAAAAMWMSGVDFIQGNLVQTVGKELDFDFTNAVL
readout: pKd
// pKd: -log10(molar conc.)

Given the entry Nc1nc2c(ncn2[C@@H]2O[C@@H]3COP(=O)(O)O[C@H]4[C@@H](O)[C@H](n5cnc6c(=O)[nH]c(N)nc65)O[C@@H]4COP(=O)(O)O[C@H]3[C@H]2O)c(=O)[nH]1 , report its measured pKd.
5.34

---

- target_or_test_system: (UniProt G7TDB2)
- Sequence (G7TDB2 1-689): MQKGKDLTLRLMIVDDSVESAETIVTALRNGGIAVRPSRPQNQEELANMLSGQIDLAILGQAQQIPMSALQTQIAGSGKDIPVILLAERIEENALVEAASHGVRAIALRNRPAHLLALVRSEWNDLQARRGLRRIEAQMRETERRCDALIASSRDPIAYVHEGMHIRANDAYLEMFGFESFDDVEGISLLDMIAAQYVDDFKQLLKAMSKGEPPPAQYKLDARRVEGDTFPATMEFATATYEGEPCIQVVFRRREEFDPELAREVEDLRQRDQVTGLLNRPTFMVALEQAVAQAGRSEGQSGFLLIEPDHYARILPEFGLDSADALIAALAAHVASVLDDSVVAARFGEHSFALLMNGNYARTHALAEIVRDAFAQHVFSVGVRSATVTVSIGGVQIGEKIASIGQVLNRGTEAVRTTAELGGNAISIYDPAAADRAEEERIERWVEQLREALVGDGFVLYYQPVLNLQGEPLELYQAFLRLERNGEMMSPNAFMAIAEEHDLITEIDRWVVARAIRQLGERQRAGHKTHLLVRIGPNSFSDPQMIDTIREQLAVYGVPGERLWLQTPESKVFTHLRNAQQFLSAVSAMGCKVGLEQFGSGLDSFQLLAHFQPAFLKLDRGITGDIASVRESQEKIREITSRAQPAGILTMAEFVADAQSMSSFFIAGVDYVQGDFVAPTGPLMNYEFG
readout: Kd (nM)
Express it in nM; write the number only.

Given the entry Nc1nc2c(ncn2[C@@H]2O[C@@H]3COP(=O)(O)O[C@H]4[C@@H](O)[C@H](n5cnc6c(=O)[nH]c(N)nc65)O[C@@H]4COP(=O)(O)O[C@H]3[C@H]2O)c(=O)[nH]1 [c-di-GMP] , report its measured Kd.
2900
